Target: prion protein (PrP) (Mesocricetus auratus)
Construct: gene PRNP
Sequence (P04273 90-231 limits assumed): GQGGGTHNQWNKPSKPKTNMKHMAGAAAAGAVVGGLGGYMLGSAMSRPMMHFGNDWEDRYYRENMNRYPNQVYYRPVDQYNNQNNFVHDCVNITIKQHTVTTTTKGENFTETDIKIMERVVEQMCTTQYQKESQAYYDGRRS
Assay: biochemical
MEASURED PROPERTY: IC50

[
  {
    "COMPOUND": "O=C(O[C@@H]1Cc2c(O)cc(O)cc2O[C@@H]1c1cc(O)c(O)c(O)c1)c1cc(O)c(O)c(O)c1 [EGCG, epigallocatechin gallate]",
    "RESULT": "2.84 µM"
  }
]

* * *

# pIC50 annotations
Molecular target: prion protein (PrP) (Mesocricetus auratus)
Construct: gene PRNP
Assay: biochemical
pIC50: −log10 of the molar value.

[
  {
    "CHEM SMILES": "O=C(/C=C/c1ccc(O)c(O)c1)O[C@@H]1C[C@@](O)(C(=O)O)C[C@@H](O)[C@@H]1O",
    "pIC50": 4.45
  },
  {
    "CHEM SMILES": "O=C(/C=C/c1ccc(O)c(O)c1)O[C@@H]1C[C@](O)(C(=O)O)C[C@@H](O)[C@H]1O",
    "pIC50": 4.19
  }
]
